Where do these numbers come from? They come from PubChem BioAssay (NCI).

# System: K-562 leukemia
# test.name: NCI-60 one-dose screen, 48 h
# reported.conditions: 10 µM unless noted
The panel holds about 83,000 compounds, 20% with a hit somewhere; the sample as a whole holds those more often. The source made the active and inactive calls. The calls were made as follows: active = growth percent below 10; inactive = the rest.
Pick one and only one: 1 = active, -1 = inactive

Answered examples (10):
* O=[N+]([O-])c1cc([N+](=O)[O-])c(NN=C(c2ccc(O)cc2)c2ccc(O)cc2)cc1Cl | -1
* CN(C)CCOc1ccc(/C(=C(/CCCl)c2ccccc2)c2ccccc2)cc1 | 1
* Cn1cc(-c2noc(C(=O)c3cn(C)c4ncccc34)n2)c2ccccc21 | -1
* COc1ccc(-c2cc(-c3ccccc3)nc(SCCCCCC(=O)NO)n2)cc1 | -1
* NC(=O)CC1C=CCC1 (stereo not given) | -1
* O=C(O)CSCc1nnc2n(Cc3ccccc3)c(=O)c3c4c(sc3n12)CCCC4 | -1
* CCOc1cc(/C=N\NC(=O)N/N=C/c2ccc(O)c(OCC)c2)ccc1O | -1
* Oc1c(CNCCNCc2cc(Cl)cc(Cc3ccccc3)c2O)cc(Cl)cc1Cc1ccccc1 | -1
* COc1cc(C)cc2oc3oc(=N)c(C(=O)c4ccccc4)cc3c(=O)c12 | -1
* CC1Cc2ccc(OCCN(C)C)cc2C1=O (stereo not given) | -1

# lookup: test call for "C=C(C)[C@@H]1CC[C@]2(C)[C@H](CC=C3[C@@H]4[C@@H](C)[C@H](C)CC[C@]4(C(N)=O)CC[C@]32C)[C@@]1(C)CCC#N" 1

Kindly provide the recorded test outcome for the following molecule: "O=C(O)c1cc([N+](=O)[O-])ccc1Br" -1

Name the outcome recorded for "CCN(CCO)CCC(=O)c1ccc([N+](=O)[O-])cc1" in the assay. -1

----------
Listed below: growth values for each entry.
# Test system: MCF7 breast
# test.name: NCI-60 one-dose screen, 48 h (100 = growth as untreated, 0 = no growth, -100 = all killed)
# reported.conditions: 10 µM unless noted
About 83,000 compounds went through this panel and 20% of them were active in at least one assay; those are over-represented in the sample as a whole. The source made the active and inactive calls. Rule for the calls: active = growth percent below 10; inactive = the rest.

As a guide, the following entries are already answered.
* N#Cc1ccc(-c2ccc(COc3ccc(CC4SC(=O)NC4=O)cc3)cc2)cc1 (configuration not stated) | 38.1% (inactive)
* Cn1ncc2c(Nc3ccc(O)cc3)nc(Cl)nc21 | 94% (inactive)

# context switch: different compound, same growth
Consider "CCOC(=O)Nc1ccc2c(c1)/C(=N\NC(=S)NC)c1ccccc1-2" . Its measured growth is 74.6% (inactive)

----------
# Test system: NCI-H322M lung
# test.name: NCI-60 one-dose screen, 48 h
# reported.conditions: 10 µM unless noted
About 83,000 compounds went through this panel and 20% of them were active in at least one assay; those are over-represented in the sample as a whole. Active and inactive are the calls of the source. Rule for the calls: active = growth percent below 10; inactive = the rest.
Tick one outcome: Y = active, N = inactive

What classification did COc1ccc2c(c1)C(C)Cc1c(ncnc1-n1cnc3ccccc31)N2C (stereo unspecified) end up with in this test? N

Outcome? "Cc1cccc([N+](=O)[O-])c1I" N

Hi team, can someone confirm the assay call for "Cn1cc(-c2nnc(-c3cn(C)c4ncccc34)o2)c2ccccc21" ? N

I would be grateful if you could indicate the recorded call for COc1ccc(C2CC(c3cc(OC)c(OC)c(OC)c3)=NN2C(C)=O)cc1OCC(=O)Nc1nc2ccc(C(F)(F)F)cc2s1 (stereo unspecified) . N

Test call for this molecule, please: CCCCCC1CCCCN1C(=O)OCCCC (stereo unspecified) N
